target: HEG1-KRIT1 PPI (Homo sapiens); construct: a recombinant FERM domain (residues 417–736) of KRIT1; made in house; host or cells: E. coli; test: HEG1-KRIT1 PPI fluorescence polarization (FP) time-resolved assay; type: biochemical; settings: global fit; means ± SD, n = 3; unit in Figure 2E; read-out: HEG1-KRIT1 PPI Assay Ki (koff/kon)
Sequence (O00522 417-736): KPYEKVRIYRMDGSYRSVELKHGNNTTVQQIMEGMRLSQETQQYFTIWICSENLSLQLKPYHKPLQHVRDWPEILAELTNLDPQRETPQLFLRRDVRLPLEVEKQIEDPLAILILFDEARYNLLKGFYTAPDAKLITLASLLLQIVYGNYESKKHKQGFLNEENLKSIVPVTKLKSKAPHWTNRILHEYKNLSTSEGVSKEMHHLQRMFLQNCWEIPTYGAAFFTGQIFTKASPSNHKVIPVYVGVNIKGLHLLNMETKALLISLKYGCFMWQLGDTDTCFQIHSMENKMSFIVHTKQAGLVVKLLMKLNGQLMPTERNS
pKi: −log10 of the molar value.
Measure: pKi

>  <Smiles input>
O=Cc1c(O)ccc2cc(-c3ccccc3)ccc12

>  <Recorded number>
6.19

$$$$

1. O=Cc1c(O)ccc2ccc(-c3cccs3)cc12
2. O=Cc1c(O)ccc2cc(Cl)ccc12
Q. Larger number for pKi: 1 , or 2 ? Identify your pick by its label.
A. 1

----------
A collection of molecules and their measured CC50 at 48 h
test: HEK293 cytotoxicity, resazurin cell viability assay; format: cell-based; conditions: human, HEK293 cells, means ± SD, n = 3

>  <Molecule>
C#Cc1ccc2c(C=O)c(O)ccc2c1 [Compound 3]

>  <CC50 at 48 h>
> 100 µM

$$$$
>  <Molecule>
O=Cc1c(O)ccc2cc(-c3c[nH]nn3)ccc12 [Compound 14]

>  <CC50 at 48 h>
> 100 µM

$$$$

Would you kindly look at the next entry?
// sample COc1ccc2c(C=O)c(O)ccc2c1 [Compound 2, 2-hydroxy-6-methoxy-1-naphthaldehyde] , its CC50 at 48 h was > 100 µM

Data origin: paper PMC10644391
